Entries annotated with measured pKi
# MEASUREMENT TARGET: glucocorticoid receptor (GR) (Homo sapiens)
# Construct: endogenous in cells; host or cells: HeLa (ATCC) cell lysate supernatant
# Sequence (P04150 1-777): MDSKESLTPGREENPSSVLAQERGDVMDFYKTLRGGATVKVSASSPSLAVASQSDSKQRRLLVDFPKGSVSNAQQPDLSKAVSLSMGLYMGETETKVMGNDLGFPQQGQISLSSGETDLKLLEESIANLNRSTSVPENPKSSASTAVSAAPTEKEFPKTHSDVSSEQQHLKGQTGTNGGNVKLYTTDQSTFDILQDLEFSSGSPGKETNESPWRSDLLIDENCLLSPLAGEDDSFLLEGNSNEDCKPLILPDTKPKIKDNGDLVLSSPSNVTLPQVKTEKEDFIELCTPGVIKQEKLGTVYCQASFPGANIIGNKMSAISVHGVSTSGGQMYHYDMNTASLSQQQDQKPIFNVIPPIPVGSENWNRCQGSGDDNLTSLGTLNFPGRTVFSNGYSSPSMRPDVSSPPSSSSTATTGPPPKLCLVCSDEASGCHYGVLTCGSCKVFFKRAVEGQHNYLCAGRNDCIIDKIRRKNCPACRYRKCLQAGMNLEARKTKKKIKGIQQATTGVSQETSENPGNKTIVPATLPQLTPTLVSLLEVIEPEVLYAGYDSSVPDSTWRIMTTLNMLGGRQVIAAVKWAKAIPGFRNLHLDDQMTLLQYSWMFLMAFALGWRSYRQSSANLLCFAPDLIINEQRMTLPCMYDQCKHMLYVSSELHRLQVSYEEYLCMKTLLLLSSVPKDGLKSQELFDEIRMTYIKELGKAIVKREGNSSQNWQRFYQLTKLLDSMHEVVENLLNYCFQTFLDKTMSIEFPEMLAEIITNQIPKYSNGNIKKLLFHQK
# MEASUREMENT PROTOCOL: Ligand binding assay (GR BIND), 3H-dexamethasone displacement, HeLa cell lysate
# TEST CONTEXT: Table 1; HeLa cell lysate, 3H-DEX
Please report pKi as the negative decimal logarithm of the molar concentration, giving only the number.

CNC(=O)Cc1ccccc1CC[C@]1(O)CCC2=Cc3c(cnn3-c3ccc(F)cc3)C[C@@]21C : 8.29
C[C@H](CNC(=O)c1ccccc1CC[C@]1(O)CCC2=Cc3c(cnn3-c3ccc(F)cc3)C[C@@]21C)C(F)(F)F : 8.99
CC(C)C(O)(C(N)=O)c1ccccc1CC[C@]1(O)CCC2=Cc3c(cnn3-c3ccc(F)cc3)C[C@@]21C (stereo partly shown) : 8.25

Now look at this one.
Asked: Consider the compound shown here: `C[C@]12Cc3cnn(-c4ccc(F)cc4)c3C=C1CC[C@@]2(O)CCc1ccccc1S(=O)(=O)C1CC1` What is its recorded pKi?
Given back: 8.88

###

# MEASUREMENT TARGET: human GR (Homo sapiens)
# Sequence (P04150 1-777): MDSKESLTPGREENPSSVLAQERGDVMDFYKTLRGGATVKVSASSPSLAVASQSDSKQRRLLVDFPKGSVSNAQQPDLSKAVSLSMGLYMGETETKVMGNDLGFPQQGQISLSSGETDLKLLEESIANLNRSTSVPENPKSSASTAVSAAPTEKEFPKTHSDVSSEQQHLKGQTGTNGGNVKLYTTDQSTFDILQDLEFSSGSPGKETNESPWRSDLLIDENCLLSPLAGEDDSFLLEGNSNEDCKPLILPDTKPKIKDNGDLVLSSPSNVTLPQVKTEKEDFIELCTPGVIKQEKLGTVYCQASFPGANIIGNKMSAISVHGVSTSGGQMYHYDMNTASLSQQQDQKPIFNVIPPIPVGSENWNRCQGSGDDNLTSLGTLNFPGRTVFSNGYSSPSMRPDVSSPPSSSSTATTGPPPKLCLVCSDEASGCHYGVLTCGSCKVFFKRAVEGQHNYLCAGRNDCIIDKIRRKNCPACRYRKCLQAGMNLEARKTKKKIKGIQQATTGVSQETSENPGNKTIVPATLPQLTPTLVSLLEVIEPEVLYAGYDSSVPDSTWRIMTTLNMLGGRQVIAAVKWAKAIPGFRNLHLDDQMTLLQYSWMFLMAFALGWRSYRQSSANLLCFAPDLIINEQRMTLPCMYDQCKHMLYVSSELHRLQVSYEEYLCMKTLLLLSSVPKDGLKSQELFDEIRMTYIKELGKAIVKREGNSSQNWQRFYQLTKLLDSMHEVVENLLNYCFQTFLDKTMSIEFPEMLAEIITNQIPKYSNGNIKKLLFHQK
# MEASUREMENT PROTOCOL: Trans-Activation Modulation of Glucocorticoid Receptor (GRAMMER), MMTV-LUC reporter gene
# Type: cell-based
# Parameters: endogenous in cells
# TEST CONTEXT: Table 2; A549 cells; IP = inflection point; read-out: Transactiviation A549 Cells GRAMMER IP
READOUT KIND: EC50 (µM)
The response must be a number in µM with no trailing unit.

Below are worked cases with known answers.
C[C@]12Cc3cnn(-c4ccc(F)cc4)c3C=C1CC[C@@]2(O)CCc1ccccc1 [Example 2 WO 2004/075840 A2, reference compound] : 0.23
C[C@]12Cc3cnn(-c4ccc(F)cc4)c3C=C1CC[C@@]2(O)CCc1ccccc1Cl [Example 40 WO 2004/075840 A2, reference compound] : 0.162
C[C@]12Cc3cnn(-c4ccc(F)cc4)c3C=C1CC[C@@]2(O)CCc1ccccc1F [Example 70 WO 2004/075840 A2, reference compound] : 0.215

Now look at this one.
Asked: Under human GR (Homo sapiens): EC50 value of C[C@]12Cc3cnn(-c4ccc(F)cc4)c3C=C1CC[C@@]2(O)CCc1ccc(F)cc1 [Example 46 WO 2004/075840 A2, reference compound] ?
Given back: 0.571

###

Entries annotated with measured GITAR > GRAMM % SEP
# MEASUREMENT TARGET: human GR (Homo sapiens)
# Sequence (P04150 1-777): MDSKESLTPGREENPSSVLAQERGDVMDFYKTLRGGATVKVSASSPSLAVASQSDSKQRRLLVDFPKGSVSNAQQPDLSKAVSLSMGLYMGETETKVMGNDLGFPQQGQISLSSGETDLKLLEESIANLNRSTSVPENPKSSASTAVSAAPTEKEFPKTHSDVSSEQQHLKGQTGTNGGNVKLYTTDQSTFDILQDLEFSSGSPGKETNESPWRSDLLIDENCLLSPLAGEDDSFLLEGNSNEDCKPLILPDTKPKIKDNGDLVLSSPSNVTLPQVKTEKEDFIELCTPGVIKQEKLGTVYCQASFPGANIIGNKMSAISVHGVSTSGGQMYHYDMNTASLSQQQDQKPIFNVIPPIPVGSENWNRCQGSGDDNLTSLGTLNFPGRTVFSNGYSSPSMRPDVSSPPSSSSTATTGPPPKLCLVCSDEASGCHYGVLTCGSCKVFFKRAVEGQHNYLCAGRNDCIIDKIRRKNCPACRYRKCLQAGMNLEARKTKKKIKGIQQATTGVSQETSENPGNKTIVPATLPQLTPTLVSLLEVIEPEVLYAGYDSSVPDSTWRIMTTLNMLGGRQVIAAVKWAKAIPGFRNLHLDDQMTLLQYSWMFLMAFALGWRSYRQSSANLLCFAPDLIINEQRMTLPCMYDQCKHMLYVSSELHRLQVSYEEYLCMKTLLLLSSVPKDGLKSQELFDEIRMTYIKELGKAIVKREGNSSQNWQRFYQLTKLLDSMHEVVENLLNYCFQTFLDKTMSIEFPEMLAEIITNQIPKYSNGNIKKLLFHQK
# MEASUREMENT PROTOCOL: Transrepression Assay (GITAR), TNFα-β-lactamase reporter gene in U937 cells
# Format: cell-based
# Set-up: U937 cells contain an endogenous glucocorticoid receptor (GR); endogenous in cells; host or cells: U937 cells stably transfected with the TNF-α promoter/β-lactamase reporter only
# TEST CONTEXT: Table 1; separation of GITAR Emax over GRAMMER Emax
The response must be a number in % with no trailing unit.

CC(CNC(=O)c1ccccc1CC[C@]1(O)CCC2=Cc3c(cnn3-c3ccc(F)cc3)C[C@@]21C)C(F)(F)F (stereo partly drawn) [Example 31] : 39
C[C@]12Cc3cnn(-c4ccccc4)c3C=C1CC[C@@]2(O)CCc1ccccc1C(N)=O [Example 43] : 9
C[C@]12Cc3cnn(-c4ccc(F)cc4)c3C=C1CC[C@@]2(O)CCc1cccc(F)c1CNS(=O)(=O)CC(F)(F)F [Example 86] : 53
Cc1cccc(CC[C@]2(O)CCC3=Cc4c(cnn4-c4cccc(F)c4)C[C@@]32C)c1C(N)=O [Example 191] : 29
C[C@]12Cc3cnn(-c4ccc(F)cc4)c3C=C1CC[C@@]2(O)CCc1cccc(F)c1CO [Example 148] : 18

Now look at this one.
Asked: Consider the molecule shown here: CC(C)(C)NC(=O)c1ccccc1CC[C@]1(O)CCC2=Cc3c(cnn3-c3ccc(F)cc3)C[C@@]21C [Example 62] What is its recorded GITAR > GRAMM % SEP?
Given back: 56
